The measurements presented in this section are drawn from patent US20170334899A1.

target: catalytic domain of human Bub1 (amino acids 704-1085) (Homo sapiens, UniProt O43683); construct: catalytic domain of human Bub1 (amino acids 704-1085); His6 (N); made in house; host or cells: insect cells (Hi5); assay: Bub1 kinase assay (TR-FRET); type: biochemical; settings: 10 μM ATP, avg, read-out: Bub1 avg (IC50 [mol/l])
Sequence (O43683 704-1085): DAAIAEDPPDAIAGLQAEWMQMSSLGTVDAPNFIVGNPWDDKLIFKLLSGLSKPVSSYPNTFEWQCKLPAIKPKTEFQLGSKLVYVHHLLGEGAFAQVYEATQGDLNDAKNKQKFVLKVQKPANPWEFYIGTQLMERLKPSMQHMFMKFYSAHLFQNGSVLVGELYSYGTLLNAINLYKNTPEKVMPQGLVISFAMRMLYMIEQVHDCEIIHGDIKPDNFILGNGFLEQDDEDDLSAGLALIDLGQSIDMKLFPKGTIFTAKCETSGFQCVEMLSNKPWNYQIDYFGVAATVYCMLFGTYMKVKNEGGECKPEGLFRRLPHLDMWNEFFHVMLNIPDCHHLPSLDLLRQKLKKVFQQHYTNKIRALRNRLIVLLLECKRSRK
pIC50: −log10 of the molar value.
Assign pIC50 to each entry below.

Which pIC50 is reported for this compound? `Cc1nsc(Nc2ccc(C#N)cn2)c1C(=O)Nc1ccc(C(=O)OC(C)(C)C)cc1` ≤ 4.70

# get_value(readout='pIC50', item= `Cc1nsc(Nc2cnccn2)c1C(=O)Nc1ccc(OCCCN)nc1` ) ≤ 4.70

# pIC50 lookup, item `CCN1CCC(Oc2ccc(NC(=O)c3c(C)nsc3Nc3cc(C#N)ccn3)cn2)CC1` ≤ 4.70

Would you kindly share the measured pIC50 for `CCCN1CC[C@@H](Oc2ccc(NC(=O)c3c(C)nsc3Nc3cnc(C(F)(F)F)cn3)cn2)[C@@H](F)C1` ? < 4.70

GET /values?readout=pIC50&item= `Cc1nsc(Nc2cncc(C(F)(F)F)n2)c1C(=O)Nc1ccc(OCCN)nc1` < 4.70

Need pIC50, item `Cc1nsc(Nc2cnc(C(F)(F)F)cn2)c1C(=O)Nc1ccc(OC2CCN(C(=O)OC(C)(C)C)CC2)c(F)c1` < 4.70

Record request: pIC50 value, item Cc1nsc(Nc2cnc3ccccc3n2)c1C(=O)Nc1cccc(NS(=O)(=O)C2CCCN(C(=O)OCc3ccccc3)C2)c1 (stereo not shown) < 4.70

Param item = `Cc1nsc(Nc2cnc(C(F)(F)F)cn2)c1C(=O)Nc1ccc(OC[C@@H]2CCN(CC(F)(F)F)C2)nc1` ; retrieve measured pIC50. < 4.70

Fill in the blank: the reported pIC50 of `Cc1nsc(Nc2cnc(C(F)(F)F)cn2)c1C(=O)Nc1ccc(F)c(OCCCNCC(F)(F)F)c1` is ____. ≤ 4.70

// returns reported pIC50 for input `Cc1nsc(Nc2cnc3ccccc3n2)c1C(=O)Nc1ccc(NCCNC(=O)OC(C)(C)C)nc1` < 4.70

---

For each entry below, report its pIC50 value.
target: human kinase Mps-1 (Homo sapiens, UniProt P33981); construct: N-terminally GST-tagged human full length recombinant Mps-1 kinase; GST (N); experiment: Mps-1 kinase assay (TR-FRET); conditions: Mps-1 TR-FRET kinase assay; avg; read-out: Mps1 avg (IC50 [mol/l])
Sequence (P33981 whole entry): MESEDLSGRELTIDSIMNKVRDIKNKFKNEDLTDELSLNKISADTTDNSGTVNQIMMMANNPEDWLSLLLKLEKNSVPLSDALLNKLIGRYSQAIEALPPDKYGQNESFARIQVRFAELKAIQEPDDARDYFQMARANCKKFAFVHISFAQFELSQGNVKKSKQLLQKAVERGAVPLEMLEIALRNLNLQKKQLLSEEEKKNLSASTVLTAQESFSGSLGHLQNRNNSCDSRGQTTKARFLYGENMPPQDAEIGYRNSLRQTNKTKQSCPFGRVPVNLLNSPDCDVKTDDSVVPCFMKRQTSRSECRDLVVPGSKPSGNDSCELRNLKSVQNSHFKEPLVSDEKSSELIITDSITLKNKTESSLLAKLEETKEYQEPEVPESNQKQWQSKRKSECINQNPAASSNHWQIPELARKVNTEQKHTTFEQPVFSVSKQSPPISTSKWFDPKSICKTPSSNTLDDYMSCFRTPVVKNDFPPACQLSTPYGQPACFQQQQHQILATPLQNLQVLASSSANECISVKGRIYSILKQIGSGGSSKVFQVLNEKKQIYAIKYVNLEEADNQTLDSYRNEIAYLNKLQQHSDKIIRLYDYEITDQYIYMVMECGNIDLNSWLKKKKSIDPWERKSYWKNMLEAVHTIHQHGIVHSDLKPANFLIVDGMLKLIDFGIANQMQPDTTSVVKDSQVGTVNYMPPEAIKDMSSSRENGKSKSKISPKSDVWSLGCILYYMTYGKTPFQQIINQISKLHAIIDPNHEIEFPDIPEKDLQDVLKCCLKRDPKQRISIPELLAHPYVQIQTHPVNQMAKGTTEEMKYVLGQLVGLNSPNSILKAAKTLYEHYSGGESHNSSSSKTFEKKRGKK
pIC50: −log10 of the molar value.

Any idea what its pIC50 is? The compound is `CCN1CCN(C(=O)c2ccc(NC(=O)c3c(C)nsc3Nc3cnc(C(F)(F)F)cn3)cc2)CC1` < 4.70

Fill in the blank: the reported pIC50 of Cc1nsc(Nc2cc(C#N)ccn2)c1C(=O)Nc1ccc(OC2CCCN(C(=O)OC(C)(C)C)C2)nc1 (stereo not shown) is ____. ≤ 4.70

I have this compound here, `Cc1nsc(Nc2cnc3ccccc3n2)c1C(=O)Nc1cccc(C(=O)N2CCN(C)CC2)c1` , and I need its recorded pIC50. ≤ 4.70

Consider the compound shown here: `COC(=O)CCc1cccc(NC(=O)c2c(C)nsc2Nc2cnc3ccccc3n2)c1` What is its recorded pIC50? < 4.70

Using the record for `Cc1nsc(Nc2cncc(C(F)(F)F)n2)c1C(=O)Nc1ccc(OCCCNC(=O)OC(C)(C)C)nc1` , report its pIC50. < 4.70

Name the recorded pIC50 for `Cc1nsc(Nc2cnc3ccccc3n2)c1C(=O)Nc1cccc(NS(=O)(=O)C2CN(CCF)C2)c1` . < 4.70

For Cc1nsc(Nc2cnc(C(F)(F)F)cn2)c1C(=O)Nc1ccc(F)c(OCC2CCCN(CC(F)(F)F)C2)c1 (stereo not shown) , what is its reported pIC50? ≤ 4.70

Consider the compound shown here: Cc1nsc(Nc2cnc(C(F)(F)F)cn2)c1C(=O)Nc1ccc(OC2CCCN(CCF)C2)nc1 (stereo not shown) What is its recorded pIC50? ≤ 4.70

Return reported pIC50; argument: `Cc1nsc(Nc2cnc(C(F)(F)F)cn2)c1C(=O)Nc1ccc(OC[C@@H]2CCCN(CC(F)(F)F)C2)nc1` < 4.70

Request the reported pIC50 associated with `Cc1nsc(Nc2cncc(C(F)(F)F)n2)c1C(=O)Nc1ccc(OCCO)nc1` < 4.70

---

Field: IC50. Provide a value for each of the compounds that follow.
Molecular target: human kinase Mps-1 (Homo sapiens)
Construct: N-terminally GST-tagged human full length recombinant Mps-1 kinase; GST (N)
Assay: Mps-1 kinase assay (TR-FRET)
Conditions: Mps-1 TR-FRET kinase assay; avg; read-out: Mps1 avg (IC50 [mol/l])
Protocol: The human kinase Mps-1 phosphorylates a biotinylated substrate peptide. Detection of the phosphorylated product is achieved by time-resolved fluorescence resonance energy transfer (TR-FRET) from Europium-labelled anti-phospho-Serine/Threonine antibody as donor to streptavidin labelled with cross-linked allophycocyanin (SA-XLent) as acceptor. Compounds are tested for their inhibition of the kinase activity. […]

Which value of IC50 has been reported for `Cc1nsc(Nc2cnc3ccccc3n2)c1C(=O)Nc1cccc(C(=O)N2CCN(C(=O)OC(C)(C)C)CC2)c1` in the records? ≥ 20 µM

Which IC50 value belongs to Cc1nsc(Nc2cnc(C(F)(F)F)cn2)c1C(=O)Nc1ccc(F)c(OCC2CCCN(CC(F)F)C2)c1 (stereo not shown) [Example 335] ? ≥ 20 µM

// IC50 lookup, key: `Cc1nsc(Nc2cnc(C(F)(F)F)cn2)c1C(=O)Nc1ccc(OC2CCN(C(CF)CF)CC2)nc1` ≥ 20 µM

Given `Cc1nsc(Nc2cnc(C(F)(F)F)cn2)c1C(=O)Nc1ccc(F)c(OCCCN(C)CCC(F)(F)F)c1` , state its recorded IC50. ≥ 20 µM

GET /values?readout=IC50&item= `Cc1nsc(Nc2cnc3ccccc3n2)c1C(=O)Nc1ccc(OC2CCN(CC(F)(F)F)CC2)nc1` ≥ 20 µM

Give its IC50 value. Item: `Cc1nsc(Nc2cnc(C(F)(F)F)cn2)c1C(=O)Nc1ccc(OC[C@@H]2CCN(CCC(F)(F)F)C2)nc1` > 20 µM

Dear colleague, I am looking for the recorded IC50 of the following compound: `Cc1nsc(Nc2cnc(C(F)(F)F)cn2)c1C(=O)Nc1ccc(OCCNCC(F)F)nc1` ≥ 20 µM

---

test system: human cervical tumor cell line HeLa (ATCC CCL-2); assay: SAC-Formation - Nocodazole-Induced Assay; type: cell-based; conditions: Homo sapiens, HeLa, 24 h, HeLa cells, nocodazole 0.1 μg/ml together with test compound, decrease of mitotic cells (phospho-histone H3 Ser10)
Assignment: determine reported log10 of IC50 for the given compounds.
Note the log scale: values are log10 of IC50 expressed in nM.

What value of log10 of IC50 has been reported for the following compound? Cc1nsc(Nc2cnc(C(F)(F)F)cn2)c1C(=O)Nc1ccc(F)c(OC[C@H]2CCCN(CC(F)F)C2)c1 [Example 400] 1.91

Dear colleague, I am looking for the recorded log10 of IC50 of the following compound: Cc1nsc(Nc2cncc(C(F)(F)F)n2)c1C(=O)Nc1ccc(F)c(OC2CCN(CC(F)(F)F)CC2)c1 [Example 267] 1.67

Recorded log10 of IC50 for Cc1nsc(Nc2cnc(C(F)(F)F)cn2)c1C(=O)Nc1ccc(F)c(OCC2CCN(CC(F)(F)F)CC2)c1 [Example 310] , please? 1.77

Look at this compound and give its reported log10 of IC50. Cc1nsc(Nc2cnc3ccccc3n2)c1C(=O)Nc1cccc(C(=O)NCCCN2CCCC2)c1 [Example 81] 4.00

So what does the record say about log10 of IC50 for Cc1nsc(Nc2cnc(C(F)(F)F)cn2)c1C(=O)Nc1ccc(OC[C@@H]2CCCN(CC(F)(F)F)C2)nc1 [Example 376] ? 1.70

I am curious: what log10 of IC50 value has been reported for CCNC(=O)c1cccc(NC(=O)c2c(C)nsc2Nc2cnc3ccccc3n2)c1 [Example 251] ? 3.18

Recorded log10 of IC50 of CCN1CCC(Oc2ccc(NC(=O)c3c(C)nsc3Nc3cc(C#N)ccn3)cn2)CC1 [Example 26] , please. 3.38

For the compound Cc1nsc(Nc2cncc(C(F)(F)F)n2)c1C(=O)Nc1ccc(F)c(C(N)=O)c1 [Example 204] , what log10 of IC50 is on record? 2.69

---

Field: IC50. Provide a value for each of the compounds that follow.
tested on: human cervical tumor cell line HeLa (ATCC CCL-2); assay: SAC-Formation - Nocodazole-Induced Assay; format: cell-based; settings: Homo sapiens, HeLa, 24 h, HeLa cells, nocodazole 0.1 μg/ml together with test compound, decrease of mitotic cells (phospho-histone H3 Ser10)
Numeric answer only, unit nM assumed.

// returns reported IC50 for input Cc1nsc(Nc2cnc(C(F)(F)F)cn2)c1C(=O)Nc1ccc(OCC2CCN(CC(F)F)CC2(F)F)nc1 (centres unmarked) 27

Which IC50 reading was recorded for the compound `CNC(=O)c1ccc(NC(=O)c2c(C)nsc2Nc2ccc(C#N)cn2)cc1F` ? 330

Item under review: `Cc1nsc(Nc2cnc3ccccc3n2)c1C(=O)Nc1ccc(Oc2cccnc2)nc1` . Reported IC50? 58

Please look up its IC50: Cc1nsc(Nc2cnc(C(F)(F)F)cn2)c1C(=O)Nc1ccc(F)c(OCC2CCCN(CC(F)(F)F)C2)c1 (centres unmarked) 61

Entry `Cc1nsc(Nc2cc(C#N)ccn2)c1C(=O)Nc1ccc(C(=O)OC(C)(C)C)cc1` has what IC50? 25

Entry `Cc1nsc(Nc2cnc(C(F)(F)F)cn2)c1C(=O)Nc1ccc(O[C@H]2CCN(CCC(F)(F)F)C[C@H]2F)nc1` : reported IC50 = ? 63

Requested field: IC50. Item: Cc1nsc(Nc2cnc(C(F)(F)F)cn2)c1C(=O)Nc1ccc(OC2CCCN(CCC(F)(F)F)C2)nc1 (centres unmarked) 7.1

Field request: IC50 | item: `Cc1nsc(Nc2cnc(C(F)(F)F)cn2)c1C(=O)Nc1ccc(C(=O)NC2CCN(CC(F)F)CC2)cc1` 400
